TESTED SYSTEM: P. falciparum apicoplast DNA polymerase (Pf-apPOL) (Plasmodium falciparum)
Sequence (Q8ILY1 entry or part of it): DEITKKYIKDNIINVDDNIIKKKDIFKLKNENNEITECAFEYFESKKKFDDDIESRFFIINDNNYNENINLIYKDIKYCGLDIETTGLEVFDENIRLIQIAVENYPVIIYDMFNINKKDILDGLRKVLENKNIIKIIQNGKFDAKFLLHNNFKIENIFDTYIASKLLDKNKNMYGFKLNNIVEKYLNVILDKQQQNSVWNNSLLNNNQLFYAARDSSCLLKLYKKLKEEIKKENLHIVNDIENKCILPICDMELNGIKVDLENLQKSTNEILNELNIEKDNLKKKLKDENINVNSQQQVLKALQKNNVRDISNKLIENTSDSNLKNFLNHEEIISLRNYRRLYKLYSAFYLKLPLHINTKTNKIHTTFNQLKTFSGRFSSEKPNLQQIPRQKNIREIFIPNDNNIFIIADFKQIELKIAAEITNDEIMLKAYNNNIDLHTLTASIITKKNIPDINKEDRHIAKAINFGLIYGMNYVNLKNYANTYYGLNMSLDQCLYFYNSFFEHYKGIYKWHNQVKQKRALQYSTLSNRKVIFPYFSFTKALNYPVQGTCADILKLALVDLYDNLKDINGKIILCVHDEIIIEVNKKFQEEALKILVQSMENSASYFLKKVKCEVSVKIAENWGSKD
ASSAY SUMMARY: Fluorescence-based high-throughput DNA polymerase assay (molecular beacon), primary screen and dose-response
Type: biochemical
CONDITION NOTES: primary screen value, DNA Pol; 90 min, 10 µM
Outcome label depends on DNA Pol relative to 40: at/above gives fulfilled, below gives not fulfilled.

For orientation, consider the following solved cases.
O=[N+]([O-])c1ccc(/C=C/c2ccc3ccccc3n2)o1 ... fulfilled
O=C(Cc1cc(=O)[nH]c(SCc2ccccc2)n1)Nc1ccc2c(c1)OCO2 ... not fulfilled
O=C(c1c[nH]c2ncccc12)N1CCCC1 [Molecule 63, O=C(c1c[nH]c2c1cccn2)N1CCCC1] ... not fulfilled
CC1(C)CC(=O)C2=C(C1)OC1=C(C(=O)CC(C)(C)C1)C2c1ccc(O)cc1 ... not fulfilled
O=C(Nc1ccc2c(c1)Cc1cc(NC(=O)c3ccco3)ccc1-2)c1ccco1 ... not fulfilled

query: Could you verify whether the entry `Cc1ccc(C)n1-c1ccc(C(=O)NNC(=O)c2ccc3nccnc3c2)cc1` shows DNA Pol of no less than 40?
result: fulfilled

query: Quick check, DNA Pol >= 40? `COc1ccc(-c2n[nH]cc2Oc2ccc(Cl)cc2)c(O)c1`
result: fulfilled
